Data origin, for the record: ChEMBL document CHEMBL4308832

test: in vitro; settings: dog, MDCK
assay-endpoint: Papp A→B (×10⁻⁶ cm/s)

smiles-data	unit-abbreviation	measured
O=C(NCCO)c1cc(NC(=O)c2cc(-c3ncccc3F)c(Cl)cc2Cl)n(-c2ccccc2)n1	×10⁻⁶ cm/s	13
NC(=O)c1cc(NC(=O)c2cc(-c3nc(N)ccc3Cl)ccc2Cl)n(-c2ccccc2)n1	×10⁻⁶ cm/s	11
NC(=O)c1cc(NC(=O)c2cc(-c3ccccn3)c(F)cc2Cl)n(-c2ccccc2)n1	×10⁻⁶ cm/s	10

###

test: in vitro; conditions: dog, MDCK
assay-endpoint: Papp A→B (×10⁻⁶ cm/s)

smiles-data	unit-abbreviation	measured
NC(=O)c1cc(NC(=O)c2cc(-c3ccccn3)c(Cl)cc2Cl)n(-c2ccccc2)n1	×10⁻⁶ cm/s	17
NC(=O)c1cc(NC(=O)c2cc(-c3ncccc3F)c(F)cc2Cl)n(-c2ccccc2)n1	×10⁻⁶ cm/s	23
O=C(NC1COC1)c1cc(NC(=O)c2cc(-c3ccccn3)c(Cl)cc2Cl)n(-c2ccccc2)n1	×10⁻⁶ cm/s	11
O=C(NCCO)c1cc(NC(=O)c2cc(-c3ccccn3)c(C(F)(F)F)cc2Cl)n(-c2ccccc2)n1	×10⁻⁶ cm/s	8.5
COc1cc(Cl)c(C(=O)Nc2cc(C(N)=O)nn2-c2ccccc2)cc1-c1ccccn1	×10⁻⁶ cm/s	13

A. CC(C)(O)CNC(=O)c1cc(NC(=O)c2cc(-c3ncccc3F)c(Cl)cc2Cl)n(-c2ccccc2)n1
B. NCCNC(=O)c1cc(NC(=O)c2cc(-c3ccccn3)c(Cl)cc2Cl)n(-c2ccccc2)n1
C. Cc1cc(NC(=O)c2ccc(Cl)cc2Cl)n(-c2ccccc2)n1
D. NC(=O)c1cccc(-c2ccc(Cl)c(C(=O)Nc3cc(C(N)=O)nn3-c3ccccc3)c2)n1
E. NC(=O)c1cc(NC(=O)c2cc(-c3ncccc3F)ccc2Cl)n(-c2ccccc2)n1
Q: Hey, quick one: sort these by Papp A→B, largest value first please. Field: ranking. Enter the labels in the order requested.
Result: C, E, A, D, B
(C: 30 ×10⁻⁶ cm/s, E: 19 ×10⁻⁶ cm/s, A: 12 ×10⁻⁶ cm/s, D: 6.1 ×10⁻⁶ cm/s, B: 0.72 ×10⁻⁶ cm/s)

I. CC(C)(O)CNC(=O)c1cc(NC(=O)c2cc(-c3ncccc3F)c(F)cc2Cl)n(-c2ccccc2)n1
II. NC(=O)c1cc(NC(=O)c2cc(-c3cccc(C(F)F)n3)ccc2Cl)n(-c2ccccc2)n1
Q: For the pair I and II , which entry has the numerically smaller recorded Papp A→B? When you have decided, please share the label of that item.
Result: II
